Recorded values, source paper PMC7277541.

- System: human embryonic kidney cells (HEK293, ATCC CRL-1573)
- MEASUREMENT DESCRIPTION: Cytotoxicity assay (resazurin)
- Type: cell-based
- STUDY CONDITIONS: HEK293, 20 h incubation
# label = t if CC50 (concentration of 50% cytotoxicity) < 10 µg/mL else f

| COMPOUND | CLASSIFICATION |
| --- | --- |
| CN(C)CCN=CC1=CCC2CC1C2(C)C.[Cl][Pd][Cl] (centres unmarked) | f |
| CN(C)CCN=C1C[C@H]2C[C@H](C2(C)C)[C@@]1(C)O.[Cl][Pd][Cl] | f |
| C[C@H](N=C1C[C@H]2C[C@H](C2(C)C)[C@@]1(C)O)c1cccc[c]1[Pd][Cl].C[C@H](N=C1C[C@H]2C[C@H](C2(C)C)[C@@]1(C)O)c1cccc[c]1[Pd][Cl] | f |
| CC(C)(C)c1cc(C=NCCN=C2C[C@H]3C[C@H](C3(C)C)[C@@]2(C)O)c([O][Pd][Cl])c(C(C)(C)C)c1 | t |
| CC1(C)[C@H]2CC(=NCCN)[C@](C)(O)[C@@H]1C2.[Cl][Pd][Cl] | f |
| C[C@H](N[C@@H]1C[C@H]2C[C@H](C2(C)C)[C@@]1(C)O)c1cccc[c]1[Pd][Cl].C[C@H](N[C@@H]1C[C@H]2C[C@H](C2(C)C)[C@@]1(C)O)c1cccc[c]1[Pd][Cl] | f |
| CN(C)CCNCC1=CCC2CC1C2(C)C.[Cl][Pd][Cl] (centres unmarked) | f |
| CC1(C)[C@@H]2C[C@H]1[C@@](C)(O)[C@H](NCCN[C@@H]1C[C@H]3C[C@H](C3(C)C)[C@@]1(C)O)C2.[Cl][Pd][Cl] | f |
| CC12CCC(C(=NC(c3ccccc3)c3cccc[c]3[Pd][Cl])C1=O)C2(C)C.CC12CCC(C(=NC(c3ccccc3)c3cccc[c]3[Pd][Cl])C1=O)C2(C)C (centres unmarked) | t |
| C[C@H](N[C@@H]1C[C@H]2C[C@H](C2(C)C)[C@@]1(C)O)c1cccc[c]1[Pd]([Cl])[P](c1ccccc1)(c1ccccc1)c1ccccc1 | t |
| CC12CCC(CC1=NCCN=Cc1ccccc1[O][Pd][Cl])C2(C)C (centres unmarked) | f |
